- TARGET OR SYSTEM: Fluorescein-SpPBP2b1-17 (S. pneumoniae R6)
- ASSAY PROCEDURE: fluorescence polarisation; GpsB protein titrated into TAMRA- or fluorescein-labelled peptide; 10 mM Tris.HCl pH 8.0, 250 mM NaCl, 0.1% reduced Triton X-100; all data fitted to a 1:1 interaction model, Kd ± standard error
READOUT TYPE: Kd

Challenge: Annotate the binder SpGpsB_(1-63) (domain or fragment, GpsB, Streptococcus pneumoniae R6, residues 1-63 (stop codon in place of Pro64); also called N-terminal domain of SpGpsB; wildtype SpGpsB_(1-63); source: E. coli, purified (Ni-NTA, thrombin, ammonium sulphate precipitation, gel filtration)) MASIIFSAKDIFEQEFGREVRGYNKVEVDEFLDDVIKDYETYAALVKSLRQEIADLKEELTRK with its measured Kd.
Response given: > 3.6 mM
